PROPERTY NAME: melting point

As a guide, the following entries are already answered.
COMPOUND STRUCTURE | PROPERTY NAME | ENDPOINT VALUE
c1ccc(CCNc2ncnc3c2ccn3Cc2ccccc2)cc1 | melting point | 210 to 211.8 °C
Cc1c(C)n(Cc2ccccc2)c2ncnc(NCCc3ccc(NC(=O)c4ccc(Cl)cc4)cc3)c12 | melting point | > 270 °C
Cc1c(C)n(Cc2ccccc2)c2ncnc(NCCc3ccc(NC(=O)c4ccccc4)cc3)c12 | melting point | 180 to 182 °C
Cc1c(C)n(Cc2ccccc2)c2ncnc(NCCc3ccc(NC(=O)Nc4ccc(F)cc4F)cc3)c12 | melting point | 208 to 209.2 °C

Attention now shifts to the item below.
Request: Fill blank: measured melting point of the compound Cc1c(C)n(Cc2ccccc2)c2ncnc(NCCc3cccc(F)c3)c12 is ____.
Response: 237.6 to 240 °C
